Quick record of IC50 values for mTOR enzyme (Homo sapiens).
MEASURE: IC50

Cc1cn(C2CCN(C(=O)c3cc(N)n[nH]3)CC2)c2nc3c(-c4ccc(-c5ccccc5)nc4)cnn3c(N)c12; 10 to 100 nM
Cc1cn(C2CCN(C(=O)c3nnc[nH]3)CC2)c2nc3c(-c4cnn(-c5ccccc5)c4)cnn3c(N)c12; 10 to 100 nM
Nc1c2c(nc3c(-c4ccc(-c5ccccc5)nc4)cnn13)C(NC1CCOCC1)CC2 (stereo not drawn); > 100 nM
Cc1cn(C2CCN(C(=O)CO)CC2)c2nc3c(-c4ccc(-c5ccn(C)n5)nc4)cnn3c(N)c12; 10 to 100 nM
Cc1cn(C2CCN(C(=O)c3nnc[nH]3)CC2)c2nc3c(-c4ccc(-c5ccccc5)nc4)cnn3c(N)c12; 10 to 100 nM
Cc1cn(C2CCN(C(=O)CO)CC2)c2nc3c(-c4cnn(-c5ccccc5)c4)cnn3c(N)c12; < 10 nM

Source: patent US8927562B2
